assayed target: LXRβ (Homo sapiens)
Construct: Co-transfection expression plasmids, comprising full-length LXRα (pCMX-h LXRα or LXRβ (pCMX-hLXRβ)); expressed in transfected cells; host or cells: CV-1 African green monkey kidney cells, transient transfection with pCMX-hLXRβ
method summary: LXR/LXRE co-transfection assay (luciferase reporter) in CV-1 cells, LXRβ
Assay type: cell-based
experimental parameters: CV-1 cells, relative to maximum response of high control N-(3-((4-fluorophenyl)-(naphthalene-2-sulfonyl)amino)propyl)-2,2-dimethylpropionamide, read-out: LXRbeta % EFFICACY
assay endpoint: Emax (%)

{"columns": ["smiles notation", "assayed target", "Emax (%)"],
 "data": [
  ["Cc1nc(-c2ccc3c(c2)OC(F)(F)O3)c(-c2cc(-c3cc(F)cc(S(C)(=O)=O)c3)ccc2-c2cc(C(F)(F)C(N)=O)nn2C)o1", "LXRβ (Homo sapiens)", 45],
  ["Cc1nc(-c2ccc3c(c2)OC(F)(F)O3)c(-c2cc(-c3cc(F)c(CO)c(S(C)(=O)=O)c3)ccc2-c2cc(C(F)(F)C#N)nn2C)o1", "LXRβ (Homo sapiens)", 72],
  ["Cn1nc(C(F)(F)C(=O)NC(C)(C)CO)cc1-c1ccc(-c2cccc(S(C)(=O)=O)c2)cc1-n1nncc1-c1ccc(OC(F)(F)F)cc1", "LXRβ (Homo sapiens)", 107]
]}

I: Cn1nc(C(F)(F)C(N)=O)cc1-c1ccc(-c2cccc(S(C)(=O)=O)c2)cc1-n1nncc1-c1ccc(OC(F)(F)F)cc1
II: Cc1nc(-c2ccc3c(c2)OC(F)(F)O3)c(-c2cc(-c3cccc(S(C)(=O)=O)c3)ccc2-c2cc(C(=O)NC3CC3)nn2C)o1
Looking at recorded values for Emax, does I or II come in lower? In your reply, give the label of the chosen option.
II
(II: 37%, I: 82%)

----------
assayed target: LXRβ (Homo sapiens, UniProt P55055)
Construct: Co-transfection expression plasmids, comprising full-length LXRα (pCMX-h LXRα or LXRβ (pCMX-hLXRβ))
Sequence (P55055 1-460): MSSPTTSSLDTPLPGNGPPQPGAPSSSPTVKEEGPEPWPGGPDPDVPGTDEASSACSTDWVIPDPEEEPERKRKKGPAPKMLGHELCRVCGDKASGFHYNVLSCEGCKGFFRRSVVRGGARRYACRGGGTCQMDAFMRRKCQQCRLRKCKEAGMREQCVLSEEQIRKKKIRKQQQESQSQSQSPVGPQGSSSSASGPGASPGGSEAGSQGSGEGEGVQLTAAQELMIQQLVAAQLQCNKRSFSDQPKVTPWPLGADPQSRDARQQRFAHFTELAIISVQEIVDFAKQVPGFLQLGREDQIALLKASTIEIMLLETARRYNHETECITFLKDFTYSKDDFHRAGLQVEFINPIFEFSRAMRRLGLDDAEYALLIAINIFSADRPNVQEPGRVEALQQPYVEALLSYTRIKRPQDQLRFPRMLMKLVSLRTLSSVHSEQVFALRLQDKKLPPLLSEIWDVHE
Sequence (P19793 1-462 partner): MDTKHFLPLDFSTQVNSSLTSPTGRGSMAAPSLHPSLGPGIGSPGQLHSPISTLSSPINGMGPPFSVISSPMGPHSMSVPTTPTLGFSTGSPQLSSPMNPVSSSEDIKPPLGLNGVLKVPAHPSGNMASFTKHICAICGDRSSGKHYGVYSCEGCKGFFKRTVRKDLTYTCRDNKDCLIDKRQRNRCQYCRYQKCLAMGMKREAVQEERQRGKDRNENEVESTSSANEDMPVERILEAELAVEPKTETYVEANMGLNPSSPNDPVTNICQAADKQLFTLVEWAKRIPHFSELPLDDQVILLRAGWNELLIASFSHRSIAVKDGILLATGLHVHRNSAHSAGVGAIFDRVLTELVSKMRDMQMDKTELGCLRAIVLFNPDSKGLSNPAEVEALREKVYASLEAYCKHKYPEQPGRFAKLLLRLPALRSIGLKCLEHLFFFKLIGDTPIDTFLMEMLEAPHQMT
method summary: LXR/LXRE co-transfection assay (luciferase reporter) in CV-1 cells, LXRβ
experimental parameters: CV-1 cells transfected with pCMX-hLXRβ and LXREx1-Tk-Luciferase, 20 hours incubation, read-out: LXRbeta agonism EC50
pEC50: −log10 of the molar value.
assay endpoint: pEC50

{"columns": ["molecule", "experimental result"],
 "data": [
  ["Cc1nc(-c2ccc(OC(F)(F)F)cc2)c(-c2cc(-c3cccc(S(C)(=O)=O)c3)ccc2-n2nc(C(F)(F)F)cc2C)o1 [Example 331]", 7.21],
  ["Cc1nc(-c2ccc3c(c2)OC(F)(F)O3)c(-c2cc(-c3cccc(S(C)(=O)=O)c3)ccc2-n2ccc(C#N)n2)o1 [Example 362]", 7.19],
  ["CS(=O)(=O)c1cccc(-c2ccc(-n3ccc(C(F)(F)F)n3)c(-c3nc(C4CC4)oc3-c3ccc(OC(F)(F)F)cc3)c2)c1 [Example 403]", 7.09]
]}

----------
assayed target: LXRβ (Homo sapiens)
Construct: Co-transfection expression plasmids, comprising full-length LXRα (pCMX-h LXRα or LXRβ (pCMX-hLXRβ)); expressed in transfected cells; host or cells: CV-1 African green monkey kidney cells, transient transfection with pCMX-hLXRβ
Sequence (P55055 1-460): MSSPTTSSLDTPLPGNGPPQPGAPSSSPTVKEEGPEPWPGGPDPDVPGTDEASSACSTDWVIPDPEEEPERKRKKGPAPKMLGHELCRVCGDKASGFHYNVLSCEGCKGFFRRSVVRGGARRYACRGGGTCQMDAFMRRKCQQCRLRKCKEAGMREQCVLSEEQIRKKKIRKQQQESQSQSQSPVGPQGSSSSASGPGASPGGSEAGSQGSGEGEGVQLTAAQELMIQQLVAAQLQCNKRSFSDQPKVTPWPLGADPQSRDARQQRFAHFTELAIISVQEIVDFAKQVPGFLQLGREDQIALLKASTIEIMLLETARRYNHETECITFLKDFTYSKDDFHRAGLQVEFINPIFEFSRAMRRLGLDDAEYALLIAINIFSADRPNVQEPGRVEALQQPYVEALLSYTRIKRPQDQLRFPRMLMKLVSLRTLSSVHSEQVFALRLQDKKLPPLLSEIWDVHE
Sequence (P19793 1-462 partner): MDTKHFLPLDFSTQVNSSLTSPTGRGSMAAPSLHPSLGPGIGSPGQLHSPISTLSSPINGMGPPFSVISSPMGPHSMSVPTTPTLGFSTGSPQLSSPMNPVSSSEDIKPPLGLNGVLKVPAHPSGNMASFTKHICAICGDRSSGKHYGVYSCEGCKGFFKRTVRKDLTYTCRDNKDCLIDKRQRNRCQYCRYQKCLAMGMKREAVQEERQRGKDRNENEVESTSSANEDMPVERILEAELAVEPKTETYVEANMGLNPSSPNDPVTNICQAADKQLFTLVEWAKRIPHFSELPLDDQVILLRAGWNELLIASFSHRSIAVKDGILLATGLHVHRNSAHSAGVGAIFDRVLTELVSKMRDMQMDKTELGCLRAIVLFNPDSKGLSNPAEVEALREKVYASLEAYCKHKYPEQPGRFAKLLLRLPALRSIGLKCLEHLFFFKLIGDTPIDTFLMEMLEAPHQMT
method summary: LXR/LXRE co-transfection assay (luciferase reporter) in CV-1 cells, LXRβ
Assay type: cell-based
experimental parameters: CV-1 cells, relative to maximum response of high control N-(3-((4-fluorophenyl)-(naphthalene-2-sulfonyl)amino)propyl)-2,2-dimethylpropionamide, read-out: LXRbeta % EFFICACY
assay endpoint: Emax (%)

Below are worked cases with known answers.
{"columns": ["molecule", "assayed target", "Emax / %"],
 "data": [
  ["CNS(=O)(=O)c1cccc(-c2ccc(-n3cc(Cl)c(C(F)(F)F)n3)c(-c3oc(C)nc3-c3ccc(OC(F)(F)F)cc3)c2)c1 [Example 444]", "LXRβ (Homo sapiens)", 63],
  ["Cc1nc(-c2ccc3c(c2)OC(F)(F)O3)c(-c2cc(-c3cc(F)c(CO)c(S(C)(=O)=O)c3)ccc2-c2cc(C(C)(C)C(C)(C)O)nn2C)o1 [Example 66]", "LXRβ (Homo sapiens)", 27],
  ["Cc1nc(-c2ccc(OC(F)(F)F)cc2)c(-c2cc(-c3cccc(C(C)(C)C#N)c3)ccc2-n2cc(Cl)c(C(F)(F)F)n2)o1 [Example 429]", "LXRβ (Homo sapiens)", 60],
  ["CNC(=O)C(F)(F)c1cc(-c2ccc(-c3cc(F)c(CO)c(S(C)(=O)=O)c3)cc2-c2oc(C)nc2-c2ccc3c(c2)OC(F)(F)O3)n(C)n1 [Example 50]", "LXRβ (Homo sapiens)", 61],
  ["Cc1nc(-c2ccc3c(c2)OC(F)(F)O3)c(-c2cc(-c3cc(F)c(CO)c(S(C)(=O)=O)c3)ccc2-c2cc(C(F)(F)C(=O)NCCO)nn2C)o1 [Example 86]", "LXRβ (Homo sapiens)", 37]
]}

P: Cc1nc(-c2ccc3c(c2)OC(F)(F)O3)c(-c2cc(-c3cc(F)c(CO)c(S(C)(=O)=O)c3)ccc2-c2cc(C(=O)NC(C)(C)C)nn2C)o1 [Example 114]
Q: CC(C)c1nc(-c2cc(-c3cccc(S(C)(=O)=O)c3)ccc2-n2ccc(C(F)(F)F)n2)c(-c2ccc(OC(F)(F)F)cc2)o1 [Example 399]
// compare measured Emax, left P , right Q , return larger # reply format: chosen label
Q
